These data points were gathered from PubChem BioAssay AID248.

# Tested on: L1210 leukemia ip in BDF1 mice, survival T/C
# ASSAY_OVERVIEW: NCI In Vivo Anticancer Drug Screen. Data for tumor model L1210 Leukemia (intraperitoneal) in B6D2F1 (BDF1) mice
# CONDITIONS_USED: endpoint: mean survival time; dose: 100.0 mg/kg/injection; schedule: Q04DX003 (ip); vehicle: Klucel (hydroxypropylcellulose) (HPC); higher = longer survival
Inconclusive results and toxic doses are left out.
I'd appreciate it if you could supply T/C values for the items below.

Worked set:
{"COMPOUND": "Nc1sc(=S)nc2[nH]ncc12", "TARGET_UNDER_TEST": "L1210 leukemia ip in BDF1 mice, survival T/C", "MEASUREMENT_LABEL": "T/C", "ASSAY_RESULT": "98 % of control"}
{"COMPOUND": "OC(C1CCCCC1)(C1CCCCC1)C1CCCCC1", "TARGET_UNDER_TEST": "L1210 leukemia ip in BDF1 mice, survival T/C", "MEASUREMENT_LABEL": "T/C", "ASSAY_RESULT": "91 % of control"}
{"COMPOUND": "O=C(c1ccccc1)C1OC(=O)C1c1ccccc1 (configuration not stated)", "TARGET_UNDER_TEST": "L1210 leukemia ip in BDF1 mice, survival T/C", "MEASUREMENT_LABEL": "T/C", "ASSAY_RESULT": "101 % of control"}
{"COMPOUND": "CC(C)OP(=O)(NC12CC3CC(CC(C3)C1)C2)OC(C)C", "TARGET_UNDER_TEST": "L1210 leukemia ip in BDF1 mice, survival T/C", "MEASUREMENT_LABEL": "T/C", "ASSAY_RESULT": "95 % of control"}
{"COMPOUND": "Cc1cc(S(=O)(=O)F)ccc1NC(=O)NCc1ccc(N2C(N)=NC(N)=NC2(C)C)cc1", "TARGET_UNDER_TEST": "L1210 leukemia ip in BDF1 mice, survival T/C", "MEASUREMENT_LABEL": "T/C", "ASSAY_RESULT": "108 % of control"}
{"COMPOUND": "N#CC(C(=O)c1ccccc1)(C(=O)c1ccccc1)c1cccc2ccccc12", "TARGET_UNDER_TEST": "L1210 leukemia ip in BDF1 mice, survival T/C", "MEASUREMENT_LABEL": "T/C", "ASSAY_RESULT": "90 % of control"}

Please supply T/C for each of the following items, keeping them in order.
1. Cc1ccc(C)c(NC(=O)NCc2ccccc2Cl)c1
2. Nc1nccc2snnc12
3. N=C1N=C(N)C(CCCOc2cc(Cl)ccc2Cl)(CCCOc2cc(Cl)ccc2Cl)C(N)=N1
4. O=C(Oc1ccc(Cl)cc1)c1ccc(Cl)cc1
5. O=CC(C=O)[N+](=O)[O-]
6. CC(C)(C)CCCC1C(=O)N(c2ccccc2)N(c2ccccc2)C1=O

1. 104 % of control
2. 94 % of control
3. 94 % of control
4. 101 % of control
5. 97 % of control
6. 106 % of control

###

# Test system: L1210 leukemia ip in BDF1 mice, survival T/C
# ASSAY_OVERVIEW: NCI In Vivo Anticancer Drug Screen. Data for tumor model L1210 Leukemia (intraperitoneal) in B6D2F1 (BDF1) mice
# CONDITIONS_USED: endpoint: mean survival time; dose: 200.0 mg/kg/injection; schedule: Q01DX009 (ip); vehicle: Klucel (hydroxypropylcellulose) (HPC); higher = longer survival
Inconclusive results and toxic doses are left out.
MEASUREMENT_LABEL: T/C

{"COMPOUND": "Cn1c(C(=O)O)cc2ccccc21", "ASSAY_RESULT": "112 % of control"}

# batch size: 8; output T/C per entry
1. CC(C)(C)OC(=O)C(CSSCC(NC(=O)OCc1ccccc1)C(=O)OC(C)(C)C)NC(=O)OCc1ccccc1 (stereo not given)
2. O=C(OC1CC2CC1C1CCCC21)c1ccc([N+](=O)[O-])cc1 (stereo not given)
3. Cc1nc(C)c([N+](=O)[O-])s1
4. CC(=O)c1c(C)c([N+](=O)[O-])c(C(C)(C)C)c([N+](=O)[O-])c1C
5. O=[N+]([O-])c1ccc(/C=C/c2ccccc2)cc1
6. COC(=O)c1cc(NC(=O)Nc2cccc(C(C)=O)c2)cc(C(=O)OC)c1
7. CC(C(=O)O)N1C(=O)c2ccccc2C1=O (stereo not given)
8. C(/C=N/N(c1ccccc1)c1ccccc1)=N\N(c1ccccc1)c1ccccc1

1. 107 % of control
2. 100 % of control
3. 94 % of control
4. 97 % of control
5. 95 % of control
6. 102 % of control
7. 95 % of control
8. 92 % of control

// batch mode: one T/C value per listed entry
1. CCCCSc1cc(C)nc(SCCCC)n1
2. CCO/C=C1\SC(=S)N(c2ccc(OCC)cc2)C1=O
3. O=C(Nc1ccc(O)cc1)Nc1cccc(Cl)c1Cl

101 % of control
95 % of control
92 % of control

For each of the compounds below, state T/C.
1. Cc1cc2oc(/C=N\Nc3nc4ccccc4s3)c(C)c2cc1C
2. O=C1OC(=O)C2=C1C1C3C=CCC3C2N2C=CC=CC12 (stereo not given)
3. Cc1cc(C)c(C(=O)c2ccc([N+](=O)[O-])cc2)c(C)c1
4. COc1ccc(OC)c(NC(=O)N(C)CCC#N)c1
5. CCOC(=O)CCSC(C)(C)C(=O)OCC
6. Cc1ccc(C)c(NC(=O)NCc2ccccc2Cl)c1
7. CCC(=O)/C=C/c1ccc(Cl)cc1
8. S=P(/C=C/c1ccccc1)(c1ccccc1)c1ccccc1

1. 96 % of control
2. 103 % of control
3. 86 % of control
4. 101 % of control
5. 101 % of control
6. 101 % of control
7. 97 % of control
8. 92 % of control

Please give T/C, item by item, for the list that follows.
1. O=C(COCC(=O)N/N=C/c1ccccc1Cl)N/N=C\c1ccccc1Cl
2. O=CC(C=O)[N+](=O)[O-]
3. O=c1c2ccccc2[nH]c(=S)n1C1CCCCC1
4. Brc1ccc2c(c1)oc1ccccc12
5. O=C(Oc1cccc(OC(=O)c2ccc(Cl)cc2)c1)c1ccc(Cl)cc1

["95 % of control", "105 % of control", "103 % of control", "97 % of control", "110 % of control"]
